Data credit: patent US20230303681A1

# Assay system: T1, human TMEM106B (human, UniProt Q9NUM4 2-274)
# T1 construct: Full-length, on transiently transfected HEK293 cells, or natively expressed on HeLa, U251 and A549 cells; also called huTMEM106B; huTMEM
# Assay: FACS HEK+huTMEM, 10 ug/ml;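 note: purified mouse IgG antibodies at 10 µg/ml bound to HEK293 cells transiently expressing human TMEM106B, measured by flow cytometry as median fluorescence intensity of propidium iodide negative live cells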
Threshold 20000: MFI strictly smaller gives satisfied, otherwise not satisfied.

# example entries with known answers
[[record]]
binder = "anti-TMEM106B antibody TM-11 (antibody, V domains shown) VH: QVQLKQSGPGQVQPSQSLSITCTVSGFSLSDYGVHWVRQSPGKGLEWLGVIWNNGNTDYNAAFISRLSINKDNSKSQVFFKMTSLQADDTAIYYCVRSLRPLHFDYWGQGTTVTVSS VL: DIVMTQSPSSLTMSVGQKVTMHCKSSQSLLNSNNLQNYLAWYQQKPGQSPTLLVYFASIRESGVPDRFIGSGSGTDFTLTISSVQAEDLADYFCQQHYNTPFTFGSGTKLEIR"
qualitative_label = "not satisfied"

[[record]]
binder = "anti-TMEM106B antibody TM-37 (antibody, V domains shown) VH: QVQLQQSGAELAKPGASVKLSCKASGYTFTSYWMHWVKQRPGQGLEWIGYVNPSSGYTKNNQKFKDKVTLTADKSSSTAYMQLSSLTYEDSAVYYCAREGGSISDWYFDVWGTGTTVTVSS VL: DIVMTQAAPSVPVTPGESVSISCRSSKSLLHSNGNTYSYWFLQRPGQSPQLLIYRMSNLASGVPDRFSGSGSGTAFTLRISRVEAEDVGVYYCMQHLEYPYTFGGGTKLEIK"
qualitative_label = "not satisfied"

[[record]]
binder = "anti-TMEM106B antibody TM-24 (antibody, V domains shown, mouse IgG from hybridoma) VH: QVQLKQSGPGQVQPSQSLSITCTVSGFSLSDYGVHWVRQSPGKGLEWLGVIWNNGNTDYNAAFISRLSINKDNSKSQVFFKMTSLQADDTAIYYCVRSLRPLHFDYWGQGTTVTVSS VL: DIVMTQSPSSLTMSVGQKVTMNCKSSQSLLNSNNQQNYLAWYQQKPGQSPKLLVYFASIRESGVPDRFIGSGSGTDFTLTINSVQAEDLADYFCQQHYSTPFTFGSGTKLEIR"
qualitative_label = "not satisfied"

[[record]]
binder = "anti-TMEM106B antibody TM-4 (antibody, V domains shown) VH: EVQVQQSGPVLVKPGASVKMSCKASGYTFTDYYMNWVKQSHGKNLEWIGVINPYNGGTSYHQKFKGKATLTVDKSSSTAYMELNSLTSEDSAVYYCARAATVVAGFDYWGQGTTLTVSS VL: QAVVTQESALTTSPGETVTLTCRSSTGAVTTSNYANWVQEKPDHLFTGLIGGTNNRAPGVPARFSGSLIGDKAALTITGAQTEDEAIYFCVLWYSNHLVFGGGTKLTVL"
qualitative_label = "satisfied"

[[record]]
binder = "anti-TMEM106B antibody TM-29 (antibody, V domains shown) VH: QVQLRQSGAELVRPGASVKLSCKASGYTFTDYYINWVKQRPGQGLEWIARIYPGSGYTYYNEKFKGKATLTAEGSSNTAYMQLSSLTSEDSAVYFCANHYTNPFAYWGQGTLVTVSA VL: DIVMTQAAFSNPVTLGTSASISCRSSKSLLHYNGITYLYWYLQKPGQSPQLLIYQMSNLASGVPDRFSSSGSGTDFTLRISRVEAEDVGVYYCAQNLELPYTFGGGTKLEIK"
qualitative_label = "not satisfied"

[[record]]
binder = "anti-TMEM106B antibody TM-25 (antibody, V domains shown) VH: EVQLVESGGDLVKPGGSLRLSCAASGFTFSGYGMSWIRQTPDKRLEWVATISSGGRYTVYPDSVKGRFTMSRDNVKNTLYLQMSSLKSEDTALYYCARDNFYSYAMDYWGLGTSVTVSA VL: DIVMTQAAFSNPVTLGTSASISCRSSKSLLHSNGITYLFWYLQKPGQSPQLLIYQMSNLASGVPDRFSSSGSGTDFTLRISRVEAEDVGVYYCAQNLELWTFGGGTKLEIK"
qualitative_label = "not satisfied"

[[record]]
binder = "anti-TMEM106B antibody TM-6 (antibody, V domains shown, mouse IgG from hybridoma) VH: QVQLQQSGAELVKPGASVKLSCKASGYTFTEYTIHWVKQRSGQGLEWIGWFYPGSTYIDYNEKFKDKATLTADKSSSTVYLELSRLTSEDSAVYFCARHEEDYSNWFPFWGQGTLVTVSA VL: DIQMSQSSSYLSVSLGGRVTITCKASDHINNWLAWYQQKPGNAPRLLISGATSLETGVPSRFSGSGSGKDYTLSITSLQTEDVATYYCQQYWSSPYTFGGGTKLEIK"
qualitative_label = "satisfied"

[[record]]
binder = "anti-TMEM106B antibody TM-22 (antibody, V domains shown) VH: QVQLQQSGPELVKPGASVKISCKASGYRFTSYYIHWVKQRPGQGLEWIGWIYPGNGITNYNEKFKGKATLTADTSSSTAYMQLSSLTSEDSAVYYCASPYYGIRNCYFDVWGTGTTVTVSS VL: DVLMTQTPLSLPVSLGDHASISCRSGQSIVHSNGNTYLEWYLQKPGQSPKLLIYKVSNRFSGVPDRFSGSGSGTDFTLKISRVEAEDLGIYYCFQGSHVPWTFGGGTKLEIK"
qualitative_label = "satisfied"


Would you kindly verify if MFI of anti-TMEM106B antibody TM-15 (antibody, V domains shown, mouse IgG from hybridoma) VH: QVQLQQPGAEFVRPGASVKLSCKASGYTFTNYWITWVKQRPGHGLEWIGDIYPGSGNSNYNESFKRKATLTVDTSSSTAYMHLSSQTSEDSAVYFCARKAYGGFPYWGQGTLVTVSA VL: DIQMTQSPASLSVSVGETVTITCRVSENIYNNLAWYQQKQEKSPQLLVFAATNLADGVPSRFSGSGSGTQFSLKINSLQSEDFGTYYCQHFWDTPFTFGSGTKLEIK is strictly less than 20000?
not satisfied

Record: anti-TMEM106B antibody TM-49 (antibody, V domains shown, mouse IgG from hybridoma) VH: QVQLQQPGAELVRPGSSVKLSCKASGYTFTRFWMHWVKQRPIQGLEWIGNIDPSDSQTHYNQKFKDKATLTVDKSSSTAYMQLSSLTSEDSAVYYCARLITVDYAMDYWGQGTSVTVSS VL: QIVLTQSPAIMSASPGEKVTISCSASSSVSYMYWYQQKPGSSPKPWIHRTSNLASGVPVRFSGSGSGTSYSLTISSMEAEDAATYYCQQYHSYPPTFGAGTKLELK
satisfied
